# testedTarget: HLA-B*3501 (human)
# conditionsUsed: remark: other sources report otherwise
pIC50: −log10 of the molar value.
reportedEndpoint: pIC50

[[record]]
binder = "NPAIASLMAF (modifications not checked) [Peptide 15.0237, HCV NS4 1789]"
reportedendpoint = "pIC50"
experimentalvalue = 5.05

